- System: Staphylococcus aureus
- Test summary: Antibacterial activity against Staphylococcus aureus MRSA ATCC 43300 (CO-ADD:GP_020); MIC in CAMBH media using NBS plates, by Resazurin F(560/590)
- Type: functional
- Applied conditions: Concentration 20 uM, ASSAY_TEST Inhibition of Bacterial Growth, detection method Resazurin, Fluorescence (ex560/em590), MEDIA CAMHB, plate type 384well, CORNING #3640, time 18 hr
Readout: Inhibition (%)

[
  {
    "Molecule": "C=C1C(=O)OC2CC3(C)CCCC(C)C3=CC12 (stereo unspecified)",
    "Recorded number": 9.16
  },
  {
    "Molecule": "CC[C@]1(O)C[C@H]2CN(CCc3c([nH]c4ccccc34)[C@@](C(=O)OC)(c3cc4c(cc3OC)N(C=O)[C@H]3[C@@](O)(C(=O)OC)[C@H](OC(C)=O)[C@]5(CC)C=CCN6CC[C@]43[C@@H]65)C2)C1.O=S(=O)(O)O [VINCRISTINE SULFATE]",
    "Recorded number": -14.43
  },
  {
    "Molecule": "CC1CC(O)C2C3(C)CCCC2(COC3=O)C12CCC1(CCOC1=O)O2 (stereo unspecified)",
    "Recorded number": 0.12
  },
  {
    "Molecule": "COc1cc2c(c(OC)c1OC)-c1ccc(OC)c(=O)cc1[C@@H](NC(C)=O)CC2 [COLCHICINE]",
    "Recorded number": -2.4
  },
  {
    "Molecule": "CC(=O)O.COc1ccc2c(=O)oc3c(OC)cc(CCN(C)C)c4c(=O)oc1c2c34",
    "Recorded number": 18.21
  },
  {
    "Molecule": "CCCCCCCCCCCCCCCCCCOCC(O)CO (stereo unspecified) [BATILOL]",
    "Recorded number": 16.14
  },
  {
    "Molecule": "CCCCCCCCCCCCCCCC(=O)O[C@@H]1[C@@H](C)[C@@]2(O)[C@@H](C=C(CO)C[C@]3(O)C(=O)C(C)=C[C@@H]23)[C@H]2[C@]1(OC(C)=O)[C@]2(C)CO",
    "Recorded number": 18.67
  },
  {
    "Molecule": "CCC1NC(=O)C(NC(=O)c2ncccc2O)C(C)OC(=O)C(c2ccccc2)NC(=O)C2CC(=O)CCN2C(=O)C(Cc2ccccc2)N(C)C(=O)C2CCCN2C1=O (stereo unspecified)",
    "Recorded number": 3.19
  },
  {
    "Molecule": "COc1c2occc2c(OC)c2c(=O)cc(C)oc12 [KHELLIN]",
    "Recorded number": 20.27
  },
  {
    "Molecule": "C[C@@H]1C(=O)C[C@H]2C(C)(C)CCC[C@]2(C)[C@@]1(O)CCc1ccoc1",
    "Recorded number": -11.22
  },
  {
    "Molecule": "COC(=O)C1C2CC3c4[nH]c5cc(OC)ccc5c4CCN3CC2CC(OC(=O)CCc2cc(OC)c(OC)c(OC)c2)C1OC (stereo unspecified)",
    "Recorded number": 8.41
  },
  {
    "Molecule": "CC(=O)C1CCCC(=O)/C=C/C(=O)O1 (stereo unspecified)",
    "Recorded number": -2.82
  },
  {
    "Molecule": "COC(=O)[C@@H]1[C@H]2C[C@@H]3c4[nH]c5ccccc5c4CCN3C[C@@H]2CC[C@@H]1O",
    "Recorded number": 20.93
  },
  {
    "Molecule": "C=C1C(=O)O[C@@H]2[C@H]3O[C@]3(C)CC/C=C(\\C)CC[C@@H]12",
    "Recorded number": -12.66
  },
  {
    "Molecule": "CCC1OC(=O)C(C)C(OC2CC(C)(O)C(O)C(C)O2)C(C)C(O)C(C)(O)CC(C)C(=O)C(C)C(O)C1C (stereo unspecified)",
    "Recorded number": -9.59
  },
  {
    "Molecule": "CC(C)c1ccc2c(c1)CC[C@H]1[C@](C)(C(=O)O)CCC[C@]21C [DEHYDROABIETIC ACID]",
    "Recorded number": 11.51
  }
]
